testMethodNotes: Dynamic Vapour Sorption (DVS) hygroscopicity test
Format: physicochemical
conditionSummary: DVS, 80% RH
valueKind: Weight Gain (80% RH) (%)
// return numeric value only (unit: %, not printed)

CCN1C(C(=O)NC23CCC(C(=O)O)(CC2)CC3)C(c2cccc(Cl)c2F)C2(C(=O)Nc3cc(Cl)ccc32)C12CCCCC2 (stereo not shown) [Form XVI] = 2.32

Kindly consider the entry below.
Which Weight Gain (80% RH) value is on record for CCN1C(C(=O)NC23CCC(C(=O)O)(CC2)CC3)C(c2cccc(Cl)c2F)C2(C(=O)Nc3cc(Cl)ccc32)C12CCCCC2.O (stereo not shown) [Form XI] ?
0.01
